From: ChEMBL document CHEMBL1201862

- Test system: U-251
- assay: NCI tumour cell line growth inhibition, 48 h
The source made the active and inactive calls. Cut-off read from the data, not from the text of the source: active = GI50 up to about 1.1 µM and inactive = higher.
measure.name: GI50

Here's what some known entries look like.
INSERT INTO assay_data (compound, measure_name, data_value) VALUES
  ('CC1=CC(=O)/C(=C/N2CCNC2=S)C(=O)O1', 'GI50', '> 100 µM (inactive)'),
  ('O/N=C1\CSc2ccccc2C1', 'GI50', '> 100 µM (inactive)'),
  ('CC1(C)CC(=O)C2=C(C1)NC(SCC(=O)O)=C(C#N)C2c1ccc(Br)cc1 (stereo unspecified)', 'GI50', '> 100 µM (inactive)');

Value sought: GI50, system U-251, item COc1cccc(/C=N/NC(N)=O)c1O . Result: > 100 µM (inactive)

// compound CCCCCCCCCCCC(=O)c1c(O)cc(C)oc1=O , assay U-251, GI50 value: 48.5 µM (inactive)

Short answer on U-251 for CC(=O)n1c2c(c(=O)n1-c1ccccc1)[S+]([O-])CCC2 (stereo unspecified) , GI50: > 100 µM (inactive)

----------
- Test system: MDA-N
- assay: NCI tumour cell line growth inhibition, 48 h
The source made the active and inactive calls. Cut-off read from the data, not from the text of the source: active = GI50 up to about 1.1 µM and inactive = higher. Non-standard residues stand in square brackets, D forms with d. Residues, ends and D or L forms follow the SMILES beside them. ξ: configuration not given here. Pentanoyl(2-O,4-OH,5-Cl) = O=C(O)C(O)CC(O)CCl; Ile(3ξ) = CCC(C)[C@H](N)C(=O)O; NMeV = CN[C@H](C(=O)O)C(C)C; NMeA = CN[C@@H](C)C(=O)O; βAla = NCCC(=O)O
measure.name: GI50

// solved cases for GI50 follow
INSERT INTO assay_data (molecule, assayed_target, data_value) VALUES
  ('Cc1ccc(/C=C2\NC(=S)N(CN3CCCCC3)C2=O)cc1', 'MDA-N', '65.2 µM (inactive)'),
  ('CCOC(=O)C1(C/C=C/CBr)CCc2ccccc2C1=O (stereo not drawn)', 'MDA-N', '14.4 µM (inactive)'),
  ('N[C@H](C(=O)O)[C@@H]1CC(Br)=NO1', 'MDA-N', '8.41 µM (inactive)'),
  ('CC(C)(C)c1cc(C(=O)C2Cc3ccccc3C(=O)O2)cc(C(C)(C)C)c1O (stereo not drawn)', 'MDA-N', '8.61 µM (inactive)'),
  ('CCC(C)[C@@H]1NC(=O)[C@@H]2CCCN2C(=O)C(CC(O)CCl)OC(=O)CCNC(=O)[C@H](C)N(C)C(=O)[C@H](C(C)C)N(C)C1=O (stereo partly drawn) (cyclo([Ile(3ξ)][NMeV][NMeA][βAla][Pentanoyl(2-O,4-OH,5-Cl)]P))', 'MDA-N', '> 100 µM (inactive)');

# N#CC(=S)Nc1ccc(Cl)c(Cl)c1 with MDA-N: GI50 is 32.7 µM (inactive)

GI50 value, target or system MDA-N, for CC(=O)O[C@H]1C[C@@H](OC(C)=O)[C@@](C)(O)[C@@H]2[C@@H](OC(C)=O)[C@@]3(O)[C@H](/C=C(/CCl)[C@H]4O[C@H]4[C@@H](OC(C)=O)[C@@]12C)OC(=O)[C@@H]3C : 12 µM (inactive)

Here c1ccc2c(c1)CC1COc3ccccc3C1O2 (stereo not drawn) was tested on MDA-N, and its GI50 came to 38 µM (inactive)

Value sought: GI50, system MDA-N, item N#Cc1c(NC(=S)NC(=O)c2ccccc2)nc2c(c1-c1ccccc1)CCCC2 . Result: > 100 µM (inactive)

Let me check: CCC(C)c1cnc(CC(C)C)c(=O)[nH]1 (stereo not drawn) , system MDA-N, measured GI50 is > 100 µM (inactive)

Reported GI50 (MDA-N) for entry O=C(Nc1ccccc1)OCCN=C1c2ccccc2C(Br)C(Br)c2ccccc21 (stereo not drawn) is 3.82 µM (inactive)

So the reported GI50 for O=C(NNC(=O)c1ccccc1O)c1cccc(Br)c1 , on MDA-N, turned out to be > 57.5 µM (inactive)

Sample O=C1C(C(c2ccccc2)N2CCOCC2)=C(O)C(c2ccccc2)N1c1ccccc1 (stereo not drawn) , system: MDA-N. Its GI50 is > 10 µM (inactive)

Param item: CSCCC(NC(=O)OCc1ccccc1)P(=O)(O)c1ccccc1 (stereo not drawn) ; param system: MDA-N; output GI50: > 100 µM (inactive)

Record Cc1cc(NC(=O)NC(=O)c2ccccc2[N+](=O)[O-])ccc1Oc1ncc(Cl)cn1 has MDA-N GI50 equal to < 0.01 µM (active)

Let me check: O=C(N/N=C/c1ccc(Br)cc1)N/N=C/c1ccc(Br)cc1 , system MDA-N, measured GI50 is 10.2 µM (inactive)

Lab note: molecule O=C1/C(=C/c2cccnc2)C(n2cccc2)c2c(Br)sc(Br)c21 (stereo not drawn) tested on MDA-N; recorded GI50 was 2.05 µM (inactive)

Case N#C/C=C1\C=CC(O)C(O)C1OC1OC(CO)C(O)C(O)C1O (stereo not drawn) , MDA-N, GI50 recorded as > 100 µM (inactive)

# value of GI50, MDA-N, item CC1=NOC2(C1)C(=O)Nc1ccccc12 (stereo not drawn) = > 100 µM (inactive)

The reported GI50 value, MDA-N, for CCSc1[nH]c(NC(=S)NC(=O)c2ccccc2Cl)c(C(N)=O)c1C(N)=O reads > 10 µM (inactive)

Measured on MDA-N, CCOC(=O)/C(C(C)=O)=C(\OC(C)=O)c1ccncc1C(=O)O has a documented GI50 of > 100 µM (inactive)

Kindly note: MDA-N, CCCCCCCCCCCC(=O)c1c(O)cc(C)oc1=O , GI50 value reported: 34.6 µM (inactive)

O=C(O)C1CC(O)CN1 (stereo not drawn) tested on MDA-N gave GI50: > 100 µM (inactive)
